Tested on: K562
test details: NCI tumour cell line growth inhibition, 48 h
Active and inactive are the calls of the source. Cut-off read from the data, not from the text of the source: active = GI50 up to about 1.1 µM and inactive = higher.
experimental readout: GI50

- molecule: "COC(=O)c1s/c(=N\\C(=S)N(C)C)n(-c2ccc(Cl)cc2)c1C(=O)OC"
  GI50: "> 100 µM (inactive)"
- molecule: "O=C(/C=C/c1ccc(O)c(O)c1)OC1C[C@@](O)(C(=O)O)C[C@@H](O)[C@H]1OC(=O)/C=C/c1ccc(O)c(O)c1 (stereo not given in full)"
  GI50: "> 100 µM (inactive)"
- molecule: "COC(=O)C1=Cc2cc3c(cc2[C@H](c2ccc4c(c2)OCO4)C1C(=O)OC)OCO3 (stereo not given in full)"
  GI50: "53.5 µM (inactive)"
- molecule: "O=c1/c(=C/c2ccccc2[N+](=O)[O-])sc2nc3ccccc3n12"
  GI50: "40.8 µM (inactive)"

With those in mind, consider the next molecule.
Record `CCOC(=O)/C(=C\c1ccnc2ccccc12)P(=O)(OCC)OCC` , field GI50: 5.89 µM (inactive)
